This listing pairs compounds with measured pKi.
Molecular target: UniProt:Q5BJF2
Sequence (Q5BJF2 whole entry): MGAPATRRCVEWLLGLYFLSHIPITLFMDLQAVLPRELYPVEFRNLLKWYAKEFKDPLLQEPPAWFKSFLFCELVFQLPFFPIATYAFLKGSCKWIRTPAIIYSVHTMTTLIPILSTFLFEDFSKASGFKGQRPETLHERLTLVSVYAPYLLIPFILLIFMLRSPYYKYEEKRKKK
Experiment: σ2 binding assay, Jurkat cell membranes, [3H]-DTG in presence of (+)-pentazocine
Conditions: read-out: Sigma 2 Ki
The scale used: pKi is minus the common logarithm of the concentration in molar units.

See these solved cases before continuing.
>>> df
                         compound_structure  parameter  test_value
0      CN(CCC(=O)NCc1ccc(Cl)cc1Cl)Cc1ccccc1        pKi        6.92
1  CN(CCC(=O)NCc1ccc([N+](=O)[O-])cc1)Cc1ccccc1        pKi        5.19
2       CN(CCC(=O)NCc1ccc(C#N)cc1)Cc1ccccc1        pKi        5.74
3        CN(CCC(=O)NCc1cccc(Cl)c1)Cc1ccccc1        pKi        6.70

Okay, next one:
Give pKi only, for "CN(CCC(=O)NCc1ccc(Cl)cc1)Cc1ccccc1" , using UniProt:Q5BJF2 data.
6.39

All values here come from patent US10179761B2.
